# EXPERIMENTAL SYSTEM: GALR2 (Homo sapiens)
# Sequence (O43603 1-387): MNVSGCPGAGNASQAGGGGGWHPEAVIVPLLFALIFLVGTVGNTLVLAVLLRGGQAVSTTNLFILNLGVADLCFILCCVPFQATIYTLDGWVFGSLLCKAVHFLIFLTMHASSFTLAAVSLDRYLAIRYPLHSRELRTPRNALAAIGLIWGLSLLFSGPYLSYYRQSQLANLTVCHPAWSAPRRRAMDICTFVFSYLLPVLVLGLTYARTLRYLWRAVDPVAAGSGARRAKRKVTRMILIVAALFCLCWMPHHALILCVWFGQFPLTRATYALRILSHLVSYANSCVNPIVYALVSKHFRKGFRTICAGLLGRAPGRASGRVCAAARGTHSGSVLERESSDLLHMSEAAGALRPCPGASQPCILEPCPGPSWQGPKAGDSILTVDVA
# ASSAY COMMENT: β-arrestin recruitment, PathHunter CHO-K1 GALR2 cells
# Type: cell-based
# SETTINGS: Table 2; mean +/− standard deviation, n ≥ 3
Marks after values point to notes of the source that are not given here.
MEASUREMENT LABEL: GalR2 Beta Arrestin, mean pEC50

Worked examples, 4 substances total:
Gal2-13FC: galanin 2-13, AEAAAKEAAAKA linker, human IgG1 FC; SEQ ID NO: 7	6.7 +/− 0.2
Gal2-18FC: galanin 2-18, AEAAAKEAAAKA linker, human IgG1 FC; SEQ ID NO: 26	7.3 +/− 0.1
Gal2-24FC: galanin 2-24, AEAAAKEAAAKA linker, human IgG1 FC; SEQ ID NO: 27	7.6 +/− 0.0
Gal2-12FC: galanin 2-12, AEAAAKEAAAKA linker, human IgG1 FC; SEQ ID NO: 25	7.6 +/− 0.2*

GalR2 Beta Arrestin, mean pEC50 for Gal2-30FC: galanin 2-30, AEAAAKEAAAKA linker, human IgG1 FC; SEQ ID NO: 28 is 7.3 +/− 0.2
